# Tested on: MCF7
# test-summary: Growth inhibition of human MCF7 cells after 48 hrs
# Assay type: functional
# measurement-conditions: MCF7, 48 h
Attribute: TGI

# annotated cases, reported TGI shown
Which TGI is reported for this compound? "O=C(Nn1c(-c2cccs2)nc2ccc(I)cc2c1=O)c1ccccc1"
> 100 µM

Which TGI is reported for this compound? "NNC(=O)COc1nc(-c2cccs2)nc2ccc(I)cc12"
89 µM

Which TGI is reported for this compound? "O=c1c2cc(I)ccc2nc(-c2cccs2)n1NC(=S)Nc1ccccc1"
88 µM

New cases:
Which TGI is reported for this compound? "NS(=O)(=O)c1ccc(-n2c(-c3cccs3)nc3ccc(I)cc3c2=O)cc1"
65 µM

Which TGI is reported for this compound? "O=S(=O)(Nc1nccs1)c1ccc(Nc2nc(-c3cccs3)nc3ccc(I)cc23)cc1"
> 100 µM

---

# System: CCRF-CEM
# test-summary: Growth inhibition of human CCRF-CEM cells after 48 hrs
# Type: functional
Please assign NOT MET whenever GI50 is at or above 20 µM, and MET whenever it is below.

A record lists "O=c1c2cc(I)ccc2nc(-c2cccs2)n1Nc1ccccc1" . Is its GI50 below 20 µM?
NOT MET

A record lists "NS(=O)(=O)c1ccc(CNc2nc(-c3cccs3)nc3ccc(I)cc23)cc1" . Is its GI50 below 20 µM?
NOT MET

A record lists "NS(=O)(=O)c1ccc(-n2c(-c3cccs3)nc3ccc(I)cc3c2=O)cc1" . Is its GI50 below 20 µM?
NOT MET

A record lists "O=C(Nn1c(-c2cccs2)nc2ccc(I)cc2c1=O)c1ccccc1" . Is its GI50 below 20 µM?
NOT MET

A record lists "O=S(=O)(Nc1nccs1)c1ccc(Nc2nc(-c3cccs3)nc3ccc(I)cc23)cc1" . Is its GI50 below 20 µM?
MET

Next compound, please.
A record lists "O=c1c2cc(I)ccc2nc(-c2cccs2)n1NC(=S)Nc1ccccc1" . Is its GI50 below 20 µM?
NOT MET

---

# Tested on: HL-60(TB)
# test-summary: Growth inhibition of human HL-60(TB) cells after 48 hrs
# Assay type: functional
# measurement-conditions: HL-60, 48 h
Please assign n whenever GI50 is at or above 20 µM, and y whenever it is below.

Consider the following illustrative entries.
A record lists "NS(=O)(=O)c1ccc(CNc2nc(-c3cccs3)nc3ccc(I)cc23)cc1" . Is its GI50 below 20 µM?
n

A record lists "O=C(Nc1ccc(I)cc1C(=O)Nc1ccc(O)cc1)c1cccs1" . Is its GI50 below 20 µM?
y

A record lists "NNC(=O)COc1nc(-c2cccs2)nc2ccc(I)cc12" . Is its GI50 below 20 µM?
n

New cases:
A record lists "O=S(=O)(Nc1nccs1)c1ccc(Nc2nc(-c3cccs3)nc3ccc(I)cc23)cc1" . Is its GI50 below 20 µM?
n

---

# test-summary: Growth inhibition of human melanoma cells after 48 hrs
# Type: functional
# measurement-conditions: Melanoma cell
Please assign no whenever GI50 is at or above 40 µM, and yes whenever it is below.

Consider the following illustrative entries.
A record lists "NS(=O)(=O)c1ccc(-n2c(-c3cccs3)nc3ccc(I)cc3c2=O)cc1" . Is its GI50 below 40 µM?
yes

A record lists "O=C(Nn1c(-c2cccs2)nc2ccc(I)cc2c1=O)c1ccccc1" . Is its GI50 below 40 µM?
yes

A record lists "O=c1c2cc(I)ccc2nc(-c2cccs2)n1-c1ccc(S(=O)(=O)Nc2nccs2)cc1" . Is its GI50 below 40 µM?
no

A record lists "O=c1c2cc(I)ccc2nc(-c2cccs2)n1O" . Is its GI50 below 40 µM?
no

New cases:
A record lists "O=c1c2cc(I)ccc2nc(-c2cccs2)n1NC(=S)Nc1ccccc1" . Is its GI50 below 40 µM?
yes

A record lists "O=c1c2cc(I)ccc2nc(-c2cccs2)n1/N=C/c1ccccc1" . Is its GI50 below 40 µM?
no

---

# test-summary: Growth inhibition of human ovarian cancer cells after 48 hrs
# Type: functional
# measurement-conditions: Cancer cell lines
test-readout: TGI

Which TGI is reported for this compound? "CCSc1nc(-c2cccs2)nc2ccc(I)cc12"
> 100 µM

New cases:
Which TGI is reported for this compound? "O=c1c2cc(I)ccc2nc(-c2cccs2)n1-c1ccc(S(=O)(=O)Nc2nccs2)cc1"
> 100 µM

Which TGI is reported for this compound? "O=c1c2cc(I)ccc2nc(-c2cccs2)n1Nc1ccccc1"
80.1 µM

Which TGI is reported for this compound? "CC(=O)CC(=O)Nn1c(-c2cccs2)nc2ccc(I)cc2c1=O"
93.6 µM

---

# Test system: NSCLC
# test-summary: Growth inhibition of human NSCLC cells after 48 hrs
# Assay type: functional
Please assign no whenever TGI is at or above 60 µM, and yes whenever it is below.

A record lists "CCCCNC(=O)c1cc(I)ccc1NC(=O)c1cccs1" . Is its TGI below 60 µM?
no

Next compound, please.
A record lists "O=S(=O)(Nc1nccs1)c1ccc(Nc2nc(-c3cccs3)nc3ccc(I)cc23)cc1" . Is its TGI below 60 µM?
no

---

# Tested on: SK-MEL-2
# test-summary: Growth inhibition of human SK-MEL-2 cells after 48 hrs
# Assay type: functional
# measurement-conditions: SK-MEL-2, 48 h
test-readout: LC50

# annotated cases, reported LC50 shown
Which LC50 is reported for this compound? "NS(=O)(=O)c1ccc(CNc2nc(-c3cccs3)nc3ccc(I)cc23)cc1"
61 µM

Which LC50 is reported for this compound? "O=C(Nn1c(-c2cccs2)nc2ccc(I)cc2c1=O)c1ccccc1"
> 100 µM

Which LC50 is reported for this compound? "NNC(=O)COc1nc(-c2cccs2)nc2ccc(I)cc12"
> 100 µM

Which LC50 is reported for this compound? "O=S(=O)(Nc1nccs1)c1ccc(Nc2nc(-c3cccs3)nc3ccc(I)cc23)cc1"
> 100 µM

Which LC50 is reported for this compound? "NS(=O)(=O)c1ccc(-n2c(-c3cccs3)nc3ccc(I)cc3c2=O)cc1"
> 100 µM

Now consider the entry below.
Which LC50 is reported for this compound? "O=C(Nc1ccc(I)cc1C(=O)Nc1ccc(O)cc1)c1cccs1"
57 µM

---

# Tested on: MCF7
# test-summary: Growth inhibition of human MCF7 cells after 48 hrs
# Format: functional
# measurement-conditions: MCF7, 48 h
test-readout: GI50 (µM)
State the answer as a number, implicitly in µM.

# annotated cases, reported GI50 shown
Which GI50 is reported for this compound? "O=c1c2cc(I)ccc2nc(-c2cccs2)n1Nc1ccccc1"
2

Which GI50 is reported for this compound? "O=S(=O)(Nc1nccs1)c1ccc(Nc2nc(-c3cccs3)nc3ccc(I)cc23)cc1"
26

Which GI50 is reported for this compound? "O=C(Nn1c(-c2cccs2)nc2ccc(I)cc2c1=O)c1ccccc1"
23

Which GI50 is reported for this compound? "O=c1c2cc(I)ccc2nc(-c2cccs2)n1NC(=S)Nc1ccccc1"
29

Which GI50 is reported for this compound? "NNC(=O)COc1nc(-c2cccs2)nc2ccc(I)cc12"
16

Which GI50 is reported for this compound? "O=C(Nc1ccc(I)cc1C(=O)Nc1ccc(O)cc1)c1cccs1"
12

Which GI50 is reported for this compound? "NS(=O)(=O)c1ccc(-n2c(-c3cccs3)nc3ccc(I)cc3c2=O)cc1"
23

New cases:
Which GI50 is reported for this compound? "NS(=O)(=O)c1ccc(CNc2nc(-c3cccs3)nc3ccc(I)cc23)cc1"
0.6

---

# test-summary: Growth inhibition of human Colon cancer cells after 48 hrs
# Type: functional
# measurement-conditions: Cancer cell lines
test-readout: LC50 (µM)
State the answer as a number, implicitly in µM.

# annotated cases, reported LC50 shown
Which LC50 is reported for this compound? "NS(=O)(=O)c1ccc(CNc2nc(-c3cccs3)nc3ccc(I)cc23)cc1"
66.4

Which LC50 is reported for this compound? "NS(=O)(=O)c1ccc(-n2c(-c3cccs3)nc3ccc(I)cc3c2=O)cc1"
87.1

New cases:
Which LC50 is reported for this compound? "O=S(=O)(Nc1nccs1)c1ccc(Nc2nc(-c3cccs3)nc3ccc(I)cc23)cc1"
87.3

Which LC50 is reported for this compound? "O=C(Nc1ccc(I)cc1C(=O)Nc1ccc(O)cc1)c1cccs1"
74.6

---

# Tested on: HL-60(TB)
# test-summary: Growth inhibition of human HL-60(TB) cells after 48 hrs
# Type: functional
# measurement-conditions: HL-60, 48 h
test-readout: TGI (µM)
State the answer as a number, implicitly in µM.

Record "NS(=O)(=O)c1ccc(-n2c(-c3cccs3)nc3ccc(I)cc3c2=O)cc1" : what is its TGI with HL-60(TB)?
64

Record "O=C(Nc1ccc(I)cc1C(=O)Nc1ccc(O)cc1)c1cccs1" : what is its TGI with HL-60(TB)?
37

Record "O=c1c2cc(I)ccc2nc(-c2cccs2)n1NC(=S)Nc1ccccc1" : what is its TGI with HL-60(TB)?
22

Record "O=S(=O)(Nc1nccs1)c1ccc(Nc2nc(-c3cccs3)nc3ccc(I)cc23)cc1" : what is its TGI with HL-60(TB)?
80
